System Name: Cytochrome P450 1A1 (Homo sapiens, UniProt P04798)
Sequence (P04798 whole entry): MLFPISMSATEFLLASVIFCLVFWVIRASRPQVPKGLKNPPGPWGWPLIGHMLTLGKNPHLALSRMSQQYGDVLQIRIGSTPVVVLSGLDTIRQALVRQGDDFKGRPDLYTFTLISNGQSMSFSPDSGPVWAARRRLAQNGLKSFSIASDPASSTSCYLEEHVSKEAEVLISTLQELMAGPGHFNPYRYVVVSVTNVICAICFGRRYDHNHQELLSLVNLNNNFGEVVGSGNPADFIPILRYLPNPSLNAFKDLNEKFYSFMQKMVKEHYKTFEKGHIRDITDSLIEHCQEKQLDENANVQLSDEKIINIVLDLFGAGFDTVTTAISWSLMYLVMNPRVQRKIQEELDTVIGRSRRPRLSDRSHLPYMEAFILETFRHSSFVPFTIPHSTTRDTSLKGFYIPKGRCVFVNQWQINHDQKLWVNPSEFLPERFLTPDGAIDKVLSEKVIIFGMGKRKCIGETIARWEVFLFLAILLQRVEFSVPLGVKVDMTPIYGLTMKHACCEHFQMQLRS
Assay Text: Inhibition of recombinant human CYP1A1 using 7-ethoxyresorufin as substrate after 15 mins in presence of NADP+ by EROD assay
Format: ADME
Assay Endpoint: log10(IC50) (log10 of the value in nM)
The figures below represent log10 of IC50, where IC50 is stated in nM.

Worked examples, 2 compounds total:
Mol Smiles | log10(IC50)
COc1ccc(OC)c2c1c(OC)cc1c(=O)cc(-c3cc(Cl)ccn3)oc12 | 1.00
COc1ccc(OC)c2c1c(OC)cc1c(=O)cc(-c3ccc(F)cn3)oc12 | 1.23

Field: log10(IC50). Fill in for each record below.
1. COc1ccc(OC)c2c1c(OC)cc1c(=O)cc(-c3cncc(Br)c3)oc12
2. COc1ccc(OC)c2c1c(OC)cc1c(=O)cc(-c3cncc(C)c3)oc12
3. COc1ccc(OC)c2c1c(OC)cc1c(=O)cc(-c3ccncc3)oc12
4. COc1ccc(OC)c2c1c(OC)cc1c(=O)cc(-c3ccnc(N)c3)oc12
5. COc1ccc(OC)c2c1c(OC)cc1c(=O)cc(-c3ccc4cc[nH]c4c3)oc12
6. COc1ccc(OC)c2c1c(OC)cc1c(=O)cc(-c3c[nH]c4ncccc34)oc12

result:
0.90
0.84
1.61
1.18
2.15
1.38

Field: log10(IC50). Fill in for each record below.
1. COc1ccc(OC)c2c1c(OC)cc1c(=O)cc(-c3ccnnc3)oc12
2. COc1ccc(OC)c2c1c(OC)cc1c(=O)cc(-c3cccnc3)oc12
3. COc1ccc(OC)c2c1c(OC)cc1c(=O)cc(-c3cccnc3Br)oc12
4. COc1ccc(OC)c2c1c(OC)cc1c(=O)cc(-c3ccc4ccccc4n3)oc12
5. COc1ccc(OC)c2c1c(OC)cc1c(=O)cc(-c3ccnc(Br)c3)oc12
6. COc1ccc(OC)c2c1c(OC)cc1c(=O)cc(-c3ccc(N)cn3)oc12

result:
1: 2.10; 2: 0.88; 3: 1.78; 4: 2.07; 5: 1.43; 6: 1.82

Field: log10(IC50). Fill in for each record below.
1. COc1ccc(OC)c2c1c(OC)cc1c(=O)cc(-c3ccc(Br)cn3)oc12
2. COc1ccc(OC)c2c1c(OC)cc1c(=O)cc(-c3cscn3)oc12
3. COc1ccc(OC)c2c1c(OC)cc1c(=O)cc(-c3cccc(N)n3)oc12
4. COc1ccc(OC)c2c1c(OC)cc1c(=O)cc(-c3cccc(C)n3)oc12
5. COc1ccc(OC)c2c1c(OC)cc1c(=O)cc(-c3cccs3)oc12

result:
1. 1.59
2. 0.49
3. 1.75
4. 1.30
5. 0.64
